Origin of values: PubChem BioAssay (NCATS)

- assay_comment: qHTS for Activators of Parkin Expression: LOPAC Validation Assay (FLuc Reporter) (AID 720573)
- measurement_setup: Cell line, PRKN promoter firefly luciferase reporter, vehicle wells = 0; series mostly up to 46.1 µM
Inconclusive results are not listed. Active and inactive are the calls of the source. Calls come from the whole dose curve; as a rule, active = well fitted activation curve with a large enough effect; inconclusive = small, poorly fitted or top-dose-only effect; inactive = no such curve, though single readings can be large or run the other way.
measurement_type: outcome

- compound: "O=c1[nH]c2ccccc2n1CCCN1CCC(n2c(=O)[nH]c3cc(Cl)ccc32)CC1"
  data_value: "inactive"
- compound: "CCCC(C)(COC(N)=O)COC(=O)NC(C)C (configuration not stated)"
  data_value: "inactive"
- compound: "COc1ccc(C(CN(C)C)C2(O)CCCCC2)cc1 (configuration not stated)"
  data_value: "inactive"
- compound: "CCC1(C2=NCCN2)Cc2ccccc2O1 (configuration not stated)"
  data_value: "inactive"
- compound: "O=C1NCN(c2ccccc2)C12CCN(CC1COc3ccccc3O1)CC2 (configuration not stated)"
  data_value: "inactive"
- compound: "CC(CCc1ccccc1)NC(C)C(O)c1ccc(O)cc1 (configuration not stated)"
  data_value: "inactive"
- compound: "CCCN1CCC[C@@H]2Cc3[nH]ncc3C[C@H]21"
  data_value: "inactive"
- compound: "Cc1cc2c(C(C)C)c(O)c(O)c(C=O)c2c(O)c1-c1c(C)cc2c(C(C)C)c(O)c(O)c(C=O)c2c1O"
  data_value: "inactive"
- compound: "CC[C@@H](CO)NC(=O)[C@@H]1C=C2c3cccc4c3c(cn4C)C[C@H]2N(C)C1"
  data_value: "inactive"
- compound: "C[C@]12CCC(=O)C(O)=C1CC[C@@H]1[C@@H]2CC[C@]2(C)C(=O)CC[C@@H]12"
  data_value: "inactive"
- compound: "CC(C)=CCOc1c2occc2cc2ccc(=O)oc12"
  data_value: "inactive"
- compound: "Cc1cccc(C)c1NC(=O)CN1CCCC1=O"
  data_value: "inactive"
- compound: "Cc1ccc(S(=O)(=O)N[C@@H](CCCCN)C(=O)CCl)cc1"
  data_value: "inactive"
- compound: "Nc1ccncc1"
  data_value: "inactive"
- compound: "CC[C@@H](CO)NC(=O)[C@@H]1C=C2c3cccc4[nH]cc(c34)C[C@H]2N(C)C1"
  data_value: "inactive"
- compound: "CC(O)(CS(=O)(=O)c1ccc(F)cc1)C(=O)Nc1ccc(C#N)c(C(F)(F)F)c1 (configuration not stated)"
  data_value: "inactive"
- compound: "Cc1cccc(C)c1NC1=NCCCS1"
  data_value: "inactive"

====

- assay_comment: Cytotoxicity counterscreen for inhibitors of SARS-CoV-2 cell entry (AID 1645845); note: nearly all actives have a fitted effect of over 50% in size
- measurement_setup: cell viability (SARS-CoV-2 entry assay cells); series mostly up to 57.1 µM
- Description: Assay Provider: Wei Zheng, Ph.D. National Center for Advancing Translational Sciences, National Institute of Health, Rockville, MD. SARS-CoV-2 spike protein, within the viral envelope, mediates viral attachment and infection of host cells. The SARS-CoV-2 spike protein specifically binds to the host receptor ACE2 (Angiotensin-converting enzyme 2). […] 7. […] Dispense 4 uL/well of ATPLite 1step luminescence assay reagent (PerkinElmer #6016739). […] 9. […] Read luminescence signal (Viewlux plate reader, PerkinElmer). […]
Inconclusive results are not listed. The source made the active and inactive calls. Calls follow the shape of the full dose curve.
Outcomes: active, inactive

- compound: "Cc1cccc(C)c1NC1=NCCCS1"
  group: "inactive"
- compound: "COC(=O)C(c1ccccc1Cl)N1CCc2sccc2C1 (centres undefined)"
  group: "inactive"
- compound: "O=NN(CCCl)C(=O)NC1CCCCC1"
  group: "inactive"
- compound: "CCC(COC(=O)c1cc(OC)c(OC)c(OC)c1)(c1ccccc1)N(C)C (centres undefined)"
  group: "inactive"
- compound: "CCCC(=O)Nc1ccc(OCC(O)CNC(C)C)c(C(C)=O)c1 (centres undefined)"
  group: "inactive"
- compound: "CC[C@H](C)C(=O)O[C@H]1C[C@@H](C)C=C2C=C[C@H](C)[C@H](CC[C@@H]3C[C@@H](O)CC(=O)O3)[C@H]21"
  group: "inactive"
- compound: "CCCN(CCC)CCc1cccc2c1CC(=O)N2"
  group: "inactive"
- compound: "CC[C@]1(O)C[C@H]2CN(CCc3c([nH]c4ccccc34)[C@@](C(=O)OC)(c3cc4c(cc3OC)N(C=O)[C@H]3[C@@](O)(C(=O)OC)[C@H](OC(C)=O)[C@]5(CC)C=CCN6CC[C@]43[C@@H]65)C2)C1"
  group: "inactive"
- compound: "COc1ccc2nc(S(=O)Cc3ncc(C)c(OC)c3C)[nH]c2c1 (centres undefined)"
  group: "inactive"
- compound: "OCCN1C[C@H](O)[C@@H](O)[C@H](O)[C@H]1CO"
  group: "inactive"
- compound: "CC(=O)O[C@]1(C(C)=O)CC[C@H]2[C@@H]3C=C(Cl)C4=CC(=O)[C@@H]5C[C@@H]5[C@]4(C)[C@H]3CC[C@@]21C"
  group: "inactive"
- compound: "Cc1nc(Nc2ncc(C(=O)Nc3c(C)cccc3Cl)s2)cc(N2CCN(CCO)CC2)n1"
  group: "inactive"
- compound: "O=C(O)CCNC(=O)c1ccc(N=Nc2ccc(O)c(C(=O)O)c2)cc1"
  group: "inactive"
- compound: "CC1(C)S[C@@H]2[C@H](NC(=O)C(C(=O)O)c3ccccc3)C(=O)N2[C@H]1C(=O)O (some centres undefined)"
  group: "inactive"
- compound: "Cc1ccc(-n2nc(C(C)(C)C)cc2NC(=O)Nc2ccc(OCCN3CCOCC3)c3ccccc23)cc1"
  group: "inactive"
- compound: "CC/C(=C(\\c1ccccc1)c1ccc(OCCN(C)C)cc1)c1ccccc1"
  group: "inactive"
- compound: "NC(=O)NO"
  group: "inactive"
- compound: "CCOC(=O)C1=C(C)NC(C)=C(C(=O)OC)C1c1cccc(Cl)c1Cl (centres undefined)"
  group: "inactive"
- compound: "C[C@]12CC[C@H]3[C@@H](CCC4=CC(=O)CC[C@@H]43)[C@@H]1CC[C@@H]2OC(=O)CCc1ccccc1"
  group: "inactive"
- compound: "FC(F)(F)c1cccc(C2=CCN(CCc3ccc4ccccc4c3)CC2)c1"
  group: "inactive"
- compound: "C[C@]12CC[C@@H]3c4ccc(O)cc4C[C@@H](CCCCCCCCCS(=O)CCCC(F)(F)C(F)(F)F)[C@H]3[C@@H]1CC[C@@H]2O (some centres undefined)"
  group: "inactive"
- compound: "CC1(C)NC(=O)N(c2ccc([N+](=O)[O-])c(C(F)(F)F)c2)C1=O"
  group: "inactive"
- compound: "CCOc1ccccc1OCCN[C@H](C)Cc1ccc(OC)c(S(N)(=O)=O)c1"
  group: "inactive"
- compound: "CN(C)[C@@H]1C(=O)C(C(N)=O)=C(O)[C@@]2(O)C(=O)C3=C(O)c4c(O)ccc(Cl)c4[C@@H](O)[C@H]3C[C@@H]12"
  group: "inactive"
- compound: "CC(COc1ccccc1)N(CCCl)Cc1ccccc1 (centres undefined)"
  group: "inactive"
- compound: "Oc1ccccc1-c1ccccc1"
  group: "inactive"
- compound: "CCCC1CCCCN1 (centres undefined)"
  group: "inactive"
- compound: "COCCCOc1cc(C[C@@H](C[C@H](N)[C@@H](O)C[C@H](C(=O)NCC(C)(C)C(N)=O)C(C)C)C(C)C)ccc1OC"
  group: "inactive"
- compound: "COC(=O)Nc1nc2ccc(C(=O)c3ccccc3)cc2[nH]1"
  group: "inactive"
- compound: "OCCN1CCN(CCCN2c3ccccc3Sc3ccc(Cl)cc32)CC1"
  group: "active"
- compound: "CN1CCN(CCCN2c3ccccc3Sc3ccc(Cl)cc32)CC1"
  group: "inactive"
- compound: "O=c1[nH]c2ccccc2n1CCCN1CCC(n2c(=O)[nH]c3cc(Cl)ccc32)CC1"
  group: "inactive"
- compound: "CN1CCN(C(c2ccccc2)c2ccccc2)CC1"
  group: "inactive"
- compound: "CC(=O)Oc1ccccc1C(=O)Nc1ncc([N+](=O)[O-])s1"
  group: "inactive"
- compound: "Cn1c(=O)c2c(ncn2CC(O)CO)n(C)c1=O (centres undefined)"
  group: "inactive"
- compound: "CC#C[C@]1(O)CC[C@H]2[C@@H]3CCC4=CC(=O)CCC4=C3[C@@H](c3ccc(N(C)C)cc3)C[C@@]21C"
  group: "inactive"
- compound: "C=C1C[C@@H]2[C@H](CC[C@]3(C)C(=O)CC[C@@H]23)[C@@]2(C)C=CC(=O)C=C12"
  group: "inactive"
- compound: "CCCCCOC(=O)Nc1nc(=O)n([C@@H]2O[C@H](C)[C@@H](O)[C@H]2O)cc1F"
  group: "inactive"
- compound: "COC(=O)[C@H]1[C@H]2C[C@@H]3c4[nH]c5cc(OC)ccc5c4CCN3C[C@H]2C[C@@H](OC(=O)c2cc(OC)c(OC)c(OC)c2)[C@@H]1OC"
  group: "inactive"
